Tested on: PDC KRAS tumor spheroids with HUVEC/MSC, viability
Test: Anticancer human tumor 349418-098-R-PDC patient-derived lung adenocarcinoma cell line growth inhibition [KRAS2]
Settings: second compound 1 µM; first compound 0.0001 µM; active compounds read low
// assign Yes if viability, T/C falls strictly below 30%, else No (ties count as No)

# MOLECULE, CATEGORY LABEL
measured = [
    ("CC(=O)Nc1cccc(-n2c(=O)n(C3CC3)c(=O)c3c(Nc4ccc(I)cc4F)n(C)c(=O)c(C)c32)c1 + C=CC(=O)N1CCN(c2nc(=O)n(-c3c(C)ccnc3C(C)C)c3nc(-c4c(O)cccc4F)c(F)cc23)C(C)C1", "No"),
    ("CC(=O)Nc1cccc(-n2c(=O)n(C3CC3)c(=O)c3c(Nc4ccc(I)cc4F)n(C)c(=O)c(C)c32)c1 + CC1OCC2(CCN(c3cnc(Sc4ccnc(N)c4Cl)c(N)n3)CC2)C1N", "Yes"),
    ("CC(=O)Nc1cccc(-n2c(=O)n(C3CC3)c(=O)c3c(Nc4ccc(I)cc4F)n(C)c(=O)c(C)c32)c1 + COc1cc2nc(C)nc(NC(C)c3cc(N)cc(C(F)(F)F)c3)c2cc1OC1CCOC1", "Yes"),
    ("CC(=O)Nc1cccc(-n2c(=O)n(C3CC3)c(=O)c3c(Nc4ccc(I)cc4F)n(C)c(=O)c(C)c32)c1 + CNCc1ccccc1-c1csc(C(C)Nc2nc(C)nc3cc(OC)c(OC)cc23)c1", "Yes"),
]

====

Test system: PDC KRAS tumor spheroids with HUVEC/MSC, viability
Test: Anticancer human tumor 349418-098-R-PDC cell line growth inhibition [KRAS2]; active = viability on the fitted dose curve at most 10% of control; inactive = the rest;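 also: spheroids exposed to compounds for seven days before readout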
Settings: second compound 0.316 µM; first compound 0.0316 µM
Excerpt: Multicellular complex tumor spheroid response to RAS pathway inhibitors in combination with a targeted agents in patient-derived cell lines with oncogenic KRAS variants from multiple cancer types A high-throughput screen of multi-cell type tumor spheroids was designed to identify active combinations of targeted small molecules and KRAS pathway inhibitors. […] Compounds. […] If the clinical Cmax for an agent had not been determined, the highest concentration tested was 10 microM. […]
Possible outcomes: active, inactive

# MOLECULE, CATEGORY LABEL
rows = [
    ("CC1COCCN1c1cc(-c2ccnn2C)c2ccnc(-c3ccn[nH]3)c2n1 (stereo not given) + COc1cc2nc(C)nc(NC(C)c3cc(N)cc(C(F)(F)F)c3)c2cc1OC1CCOC1", "inactive"),
    ("COc1cc(Nc2ncc3c(n2)-c2ccc(Cl)cc2C(c2c(F)cccc2OC)=NC3)ccc1C(=O)O + COc1cc2nc(C)nc(NC(C)c3cc(N)cc(C(F)(F)F)c3)c2cc1OC1CCOC1", "inactive"),
    ("COc1cc2nccc(Oc3ccc(NC(=O)C4(C(=O)Nc5ccc(F)cc5)CC4)cc3)c2cc1OC + C=CC(=O)N1CCN(c2nc(OCC3CCCN3C)nc3c2CCN(c2cccc4cccc(C)c24)C3)CC1CC#N", "inactive"),
    ("CC(=O)OC12COC1CC(O)C1(C)C(=O)C(O)C3=C(C)C(OC(=O)C(O)C(NC(=O)OC(C)(C)C)c4ccccc4)CC(O)(C(OC(=O)c4ccccc4)C21)C3(C)C (stereo not given) + C=CC(=O)N1CCN(c2nc(OCC3CCCN3C)nc3c2CCN(c2cccc4cccc(C)c24)C3)CC1CC#N", "inactive"),
    ("CC(=O)Nc1cccc(-n2c(=O)n(C3CC3)c(=O)c3c(Nc4ccc(I)cc4F)n(C)c(=O)c(C)c32)c1 + COc1cc2nc(C)nc(NC(C)c3cc(N)cc(C(F)(F)F)c3)c2cc1OC1CCOC1", "active"),
    ("CC(C)NCC(C(=O)N1CCN(c2ncnc3c2C(C)CC3O)CC1)c1ccc(Cl)cc1 (stereo not given) + COc1cc2nc(C)nc(NC(C)c3cc(N)cc(C(F)(F)F)c3)c2cc1OC1CCOC1", "inactive"),
    ("COC(=O)c1ccc2c(C(=Nc3ccc(N(C)C(=O)CN4CCN(C)CC4)cc3)c3ccccc3)c(O)[nH]c2c1 + CNCc1ccccc1-c1csc(C(C)Nc2nc(C)nc3cc(OC)c(OC)cc23)c1", "inactive"),
    ("O=C(c1cc(Cc2n[nH]c(=O)c3ccccc23)ccc1F)N1CCN(C(=O)C2CC2)CC1 + C=CC(=O)N1CCN(c2nc(=O)n(-c3c(C)ccnc3C(C)C)c3nc(-c4c(O)cccc4F)c(F)cc23)C(C)C1", "inactive"),
    ("CC(=O)OC12COC1CC(O)C1(C)C(=O)C(O)C3=C(C)C(OC(=O)C(O)C(NC(=O)OC(C)(C)C)c4ccccc4)CC(O)(C(OC(=O)c4ccccc4)C21)C3(C)C (stereo not given) + CNCc1ccccc1-c1csc(C(C)Nc2nc(C)nc3cc(OC)c(OC)cc23)c1", "inactive"),
    ("Cn1ncnc1[C@H]1c2n[nH]c(=O)c3cc(F)cc(c23)N[C@@H]1c1ccc(F)cc1 + CC1OCC2(CCN(c3cnc(Sc4ccnc(N)c4Cl)c(N)n3)CC2)C1N", "inactive"),
    ("CC(=O)OC12COC1CC(O)C1(C)C(=O)C(O)C3=C(C)C(OC(=O)C(O)C(NC(=O)OC(C)(C)C)c4ccccc4)CC(O)(C(OC(=O)c4ccccc4)C21)C3(C)C (stereo not given) + CC1OCC2(CCN(c3cnc(Sc4ccnc(N)c4Cl)c(N)n3)CC2)C1N", "inactive"),
    ("CC(C)NCC(C(=O)N1CCN(c2ncnc3c2C(C)CC3O)CC1)c1ccc(Cl)cc1 (stereo not given) + CNCc1ccccc1-c1csc(C(C)Nc2nc(C)nc3cc(OC)c(OC)cc23)c1", "inactive"),
    ("Cn1ncnc1[C@H]1c2n[nH]c(=O)c3cc(F)cc(c23)N[C@@H]1c1ccc(F)cc1 + CNCc1ccccc1-c1csc(C(C)Nc2nc(C)nc3cc(OC)c(OC)cc23)c1", "inactive"),
    ("CC(C)n1nc(-c2ccc3oc(N)nc3c2)c2c(N)ncnc21 + CC1OCC2(CCN(c3cnc(Sc4ccnc(N)c4Cl)c(N)n3)CC2)C1N", "active"),
    ("CC(=O)Nc1cccc(-n2c(=O)n(C3CC3)c(=O)c3c(Nc4ccc(I)cc4F)n(C)c(=O)c(C)c32)c1 + CC1OCC2(CCN(c3cnc(Sc4ccnc(N)c4Cl)c(N)n3)CC2)C1N", "active"),
    ("CCN1CCN(Cc2ccc(Nc3ncc(F)c(-c4cc(F)c5nc(C)n(C(C)C)c5c4)n3)nc2)CC1 + CC1OCC2(CCN(c3cnc(Sc4ccnc(N)c4Cl)c(N)n3)CC2)C1N", "inactive"),
    ("Cn1nccc1Nc1nccc(-c2cc3c(s2)C(C)(C)N(CCN2CCOCC2)C3=O)n1 + CNCc1ccccc1-c1csc(C(C)Nc2nc(C)nc3cc(OC)c(OC)cc23)c1", "inactive"),
    ("Cn1nccc1Nc1nccc(-c2cc3c(s2)C(C)(C)N(CCN2CCOCC2)C3=O)n1 + C=CC(=O)N1CCN(c2nc(OCC3CCCN3C)nc3c2CCN(c2cccc4cccc(C)c24)C3)CC1CC#N", "inactive"),
    ("CC(C)NCC(C(=O)N1CCN(c2ncnc3c2C(C)CC3O)CC1)c1ccc(Cl)cc1 (stereo not given) + C=CC(=O)N1CCN(c2nc(OCC3CCCN3C)nc3c2CCN(c2cccc4cccc(C)c24)C3)CC1CC#N", "inactive"),
    ("CC(=O)Nc1cccc(-n2c(=O)n(C3CC3)c(=O)c3c(Nc4ccc(I)cc4F)n(C)c(=O)c(C)c32)c1 + C=CC(=O)N1CCN(c2nc(=O)n(-c3c(C)ccnc3C(C)C)c3nc(-c4c(O)cccc4F)c(F)cc23)C(C)C1", "active"),
]
